# study.target: KDR kinase (Homo sapiens, UniProt P35968, DEL940-989/E990V)
# Sequence (P35968 with tags, fused parts or gaps DEL940-989/E990V): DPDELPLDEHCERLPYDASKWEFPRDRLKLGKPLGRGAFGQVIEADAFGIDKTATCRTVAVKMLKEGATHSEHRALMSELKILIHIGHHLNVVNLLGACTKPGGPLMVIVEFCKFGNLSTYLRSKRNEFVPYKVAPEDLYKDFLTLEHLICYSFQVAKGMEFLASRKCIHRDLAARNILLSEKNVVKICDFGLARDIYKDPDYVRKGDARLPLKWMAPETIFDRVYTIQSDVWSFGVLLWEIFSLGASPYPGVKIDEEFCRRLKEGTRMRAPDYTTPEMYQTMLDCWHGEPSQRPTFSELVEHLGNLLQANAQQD
# experiment: KDR kinase assay K1 (pyruvate kinase/lactate dehydrogenase coupled, spectrophotometric)
# Type: biochemical
# condition.notes: Method K1; read-out: KDR Data (IC50)
So basically: is IC50 under 300 nM? Then 1.0. Not under? Then 0.0.

1) CC(C)(C)c1cc(NC(=O)Nc2cccc(Cl)c2Cl)n(-c2ccc(CO)cc2)n1 [Example 19]	0.0
2) CC(C)(C)c1cc(NC(=O)Nc2cc(F)c(F)cc2F)n(-c2cccc(C#N)c2)n1 [Example 207]	0.0
3) CC(C)(C)c1cc(NC(=O)Nc2cccc(Oc3cccnc3)c2)n(-c2ccc3c(c2)CCN3)n1 [Example 119]	1.0
4) CC(C)(C)c1cc(NC(=O)Nc2cccc(Cl)c2Cl)n(-c2cccc(CCC(=O)O)c2)n1 [Example 46]	1.0
5) CC(Cc1cccc(-n2nc(C(C)(C)C)cc2NC(=O)Nc2cccc(Cl)c2Cl)c1)C(=O)O (centres unmarked) [Example 267]	0.0
6) CC(C)(C)c1cc(NC(=O)Nc2cccc(Cl)c2Cl)n(-c2ccc3c(c2)C[C@@H](C(=O)O)NC3)n1 [Example 186]	0.0
7) CC(C)(C)c1cc(NC(=O)Nc2cccc(Cl)c2Cl)n(-c2ccc3c(c2)C(=O)NCC3)n1 [Example 122]	0.0
8) CC(C)(C)c1cc(NC(=O)Nc2ccccc2)n(-c2ccc3ncccc3c2)n1 [Example 282]	0.0
9) CC(C)(C)c1cc(NC(=O)Nc2cccc(Cl)c2Cl)n(-c2ccc(C(C)(C)O)cc2)n1 [Example 20]	1.0
10) CC(C)(C)c1cc(NC(=O)Nc2ccc(Cl)cc2)n(-c2cc(CO)c3ccccc3c2)n1 [Example 61]	0.0
11) CC(C)(C)c1cc(NC(=O)Nc2cccc(F)c2F)n(-c2ccc3c(c2)CCN3)n1 [Example 307]	0.0
12) CC(C)(C)c1cc(NC(=O)Nc2cccc(Cl)c2Cl)n(-c2ccc3c(c2)CCN(S(C)(=O)=O)CC3)n1 [Example 336]	1.0
13) CC(C)(C)c1cc(NC(=O)Nc2cccc(Cl)c2Cl)n(-c2ccc(CC(=O)N3CCS(=O)(=O)CC3)cc2)n1 [Example 495]	0.0
14) CC(C)(C)c1cc(NC(=O)Nc2cccc(Cl)c2Cl)n(-c2ccc3c(c2)CCN3)n1 [Example 106]	1.0
15) CC(C)(C)c1cc(NC(=O)Nc2cccc(Cl)c2Cl)n(-c2ccc3c(c2)CCNC(=O)C3)n1 [Example 165]	1.0
16) CC(C)(C)c1cc(NC(=O)Nc2ccc(F)c(F)c2F)n(-c2ccc3ncccc3c2)n1 [Example 285]	0.0
17) CC(C)(C)c1cc(NC(=O)Nc2cccc(Cl)c2Cl)n(-c2ccc3c(c2)CC(C(=O)O)NC3)n1 (centres unmarked) [Example 205]	1.0
18) CC(C)(C)c1cc(NC(=O)Nc2cccc(Cl)c2Cl)n(-c2cccc(C(=N)N)c2)n1 [Example 44]	0.0
19) CC(C)(C)c1cc(NC(=O)Nc2cccc(Cl)c2Cl)n(-c2cccc(C(=N)NO)c2)n1 [Example 43]	0.0
20) CC(C)(C)c1cc(NC(=O)Nc2cc(F)cc(F)c2F)n(-c2cc(CNC(N)=O)c3ccccc3c2)n1 [Example 296]	1.0
21) CC(C)(C)c1cc(NC(=O)Nc2ccc(Cl)cc2)n(-c2cc(CN)c3ccccc3c2)n1 [Example 68]	0.0
22) CCOC(=O)CCc1cccc(-n2nc(C(C)(C)C)cc2NC(=O)Nc2cccc(Cl)c2Cl)c1 [Example 264]	1.0
